ASSAY_PROCEDURE: Tissue distribution in mice
Assay type: in vivo, mouse
CONDITION_NOTES: male, Swiss Webster, mouse; Plasma, 4 h post dose; mice, single iv 60 mg/kg; read-out: Tissue/plasma ratio
OBSERVABLE: Kp at 4 h
Give bare numbers.

Which Kp at 4 h is reported for this molecule? `CC(C)(CC(=O)O)NC(=O)c1nc(C#N)c2cc(Oc3ccccc3)ccc2c1O`
1

====

ASSAY_PROCEDURE: PK profile in rats
Type: in vivo, rat
CONDITION_NOTES: rat, in vivo, PK summary table
OBSERVABLE: clearance

Which clearance is reported for this molecule? `CC(C)(CC(=O)O)NC(=O)c1nc(C#N)c2cc(Oc3ccccc3)ccc2c1O`
0.367 to 0.667 mL/min/kg

====

ASSAY_PROCEDURE: PK profile in monkeys
Format: in vivo, monkey
CONDITION_NOTES: both sexes, monkey, in vivo; monkeys, males and females
OBSERVABLE: half-life

Give its half-life value. Item: `CC(C)(CC(=O)O)NC(=O)c1nc(C#N)c2cc(Oc3ccccc3)ccc2c1O`
34.6 h

====

ASSAY_PROCEDURE: PK profile in monkeys
Assay type: in vivo, monkey
CONDITION_NOTES: monkey, in vivo, po, monkeys; read-out: Oral bioavailability (Oral % F)
OBSERVABLE: bioavailability

Look at this compound and give its reported bioavailability. `CC(C)(CC(=O)O)NC(=O)c1nc(C#N)c2cc(Oc3ccccc3)ccc2c1O`
36 to 48%

====

ASSAY_PROCEDURE: Preliminary PK profile in dogs
Assay type: in vivo, dog
CONDITION_NOTES: in vivo, oral; dog, PK summary table
Excerpt: The preliminary PK profile of the compound of Formula I in dogs was studied and the results are shown in FIG. 19 and summarized in the following Table.
OBSERVABLE: Tmax

Returns the measured Tmax for the input compound. Input: `CC(C)(CC(=O)O)NC(=O)c1nc(C#N)c2cc(Oc3ccccc3)ccc2c1O`
~1 h

====

ASSAY_PROCEDURE: Preliminary PK profile in dogs
Format: in vivo, dog
CONDITION_NOTES: dog, in vivo; dogs, preliminary
Excerpt: The preliminary PK profile of the compound of Formula I in dogs was studied and the results are shown in FIG. 19 and summarized in the following Table.
OBSERVABLE: AUC(0-inf)
Number plus unit, in that order.

Param item = CC(C)(CC(=O)O)NC(=O)c1nc(C#N)c2cc(Oc3ccccc3)ccc2c1O [Formula I] ; retrieve measured AUC(0-inf).
10200 ng·h/mL

====

ASSAY_PROCEDURE: Tissue distribution in mice
Assay type: in vivo, mouse
CONDITION_NOTES: male, Swiss Webster, mouse; Heart, 8 h post dose; mice, single iv 60 mg/kg; read-out: Tissue/plasma ratio
OBSERVABLE: Kp at 8 h

Looking for the measured Kp at 8 h of `CC(C)(CC(=O)O)NC(=O)c1nc(C#N)c2cc(Oc3ccccc3)ccc2c1O` , can you help?
0.17

====

ASSAY_PROCEDURE: Tissue distribution in mice
Type: in vivo, mouse
CONDITION_NOTES: male, Swiss Webster, mouse; Duodenum, 8 h post dose; mice, single iv 60 mg/kg; read-out: Tissue/plasma ratio
OBSERVABLE: Kp at 8 h
One number for each entry.

Which Kp at 8 h value is on record for `CC(C)(CC(=O)O)NC(=O)c1nc(C#N)c2cc(Oc3ccccc3)ccc2c1O` ?
0.5

====

ASSAY_PROCEDURE: PK profile in rats
Assay type: in vivo, rat
CONDITION_NOTES: rat, in vivo, PK summary table; some longer
OBSERVABLE: half-life

# half-life lookup, item `CC(C)(CC(=O)O)NC(=O)c1nc(C#N)c2cc(Oc3ccccc3)ccc2c1O`
10 to 15 h

====

ASSAY_PROCEDURE: Preliminary PK profile in dogs
Assay type: in vivo, dog
CONDITION_NOTES: dog, in vivo; dogs, preliminary
OBSERVABLE: half-life (h)
Give bare numbers, in h.

Looking for the measured half-life of `CC(C)(CC(=O)O)NC(=O)c1nc(C#N)c2cc(Oc3ccccc3)ccc2c1O` , can you help?
11.3

====

ASSAY_PROCEDURE: PK profile in monkeys
Assay type: in vivo, monkey
CONDITION_NOTES: monkey, in vivo, po, monkeys; read-out: Oral bioavailability, group mean
OBSERVABLE: bioavailability

Requested field: bioavailability. Item: `CC(C)(CC(=O)O)NC(=O)c1nc(C#N)c2cc(Oc3ccccc3)ccc2c1O`
42 to 47%

====

ASSAY_PROCEDURE: PK profile in monkeys
Assay type: in vivo, monkey
CONDITION_NOTES: in vivo; monkey, PK summary table
OBSERVABLE: clearance

What clearance value was documented for this molecule, CC(C)(CC(=O)O)NC(=O)c1nc(C#N)c2cc(Oc3ccccc3)ccc2c1O [Formula I] ?
0.517 to 0.667 mL/min/kg

====

ASSAY_PROCEDURE: PK profile in monkeys
Format: in vivo, monkey
CONDITION_NOTES: both sexes, monkey, in vivo; monkeys, males and females
OBSERVABLE: AUC(0-t) (µg·h/mL)
Answers are plain numbers, in µg·h/mL.

// lookup AUC(0-t) for CC(C)(CC(=O)O)NC(=O)c1nc(C#N)c2cc(Oc3ccccc3)ccc2c1O [Formula I]
176

====

ASSAY_PROCEDURE: Tissue distribution in mice
Type: in vivo, mouse
CONDITION_NOTES: male, Swiss Webster, mouse; Liver, 4 h post dose; mice, single iv 60 mg/kg; read-out: Tissue/plasma ratio
OBSERVABLE: Kp at 4 h

// lookup Kp at 4 h for CC(C)(CC(=O)O)NC(=O)c1nc(C#N)c2cc(Oc3ccccc3)ccc2c1O [Formula I]
0.71

====

ASSAY_PROCEDURE: Tissue distribution in mice
Format: in vivo, mouse
CONDITION_NOTES: male, Swiss Webster, mouse; Colon, 4 h post dose; mice, single iv 60 mg/kg; read-out: Tissue/plasma ratio
OBSERVABLE: Kp at 4 h

# query: Kp at 4 h of entry CC(C)(CC(=O)O)NC(=O)c1nc(C#N)c2cc(Oc3ccccc3)ccc2c1O [Formula I]
0.23

====

ASSAY_PROCEDURE: PK profile in rats
Assay type: in vivo, rat
CONDITION_NOTES: rat, in vivo, PK summary table; mostly
OBSERVABLE: half-life

// lookup half-life for `CC(C)(CC(=O)O)NC(=O)c1nc(C#N)c2cc(Oc3ccccc3)ccc2c1O`
300 to 360 min

====

SYSTEM_NAME: PHD2 (Homo sapiens (Human), UniProt Q9GZT9)
Sequence (Q9GZT9 whole entry, species assumed): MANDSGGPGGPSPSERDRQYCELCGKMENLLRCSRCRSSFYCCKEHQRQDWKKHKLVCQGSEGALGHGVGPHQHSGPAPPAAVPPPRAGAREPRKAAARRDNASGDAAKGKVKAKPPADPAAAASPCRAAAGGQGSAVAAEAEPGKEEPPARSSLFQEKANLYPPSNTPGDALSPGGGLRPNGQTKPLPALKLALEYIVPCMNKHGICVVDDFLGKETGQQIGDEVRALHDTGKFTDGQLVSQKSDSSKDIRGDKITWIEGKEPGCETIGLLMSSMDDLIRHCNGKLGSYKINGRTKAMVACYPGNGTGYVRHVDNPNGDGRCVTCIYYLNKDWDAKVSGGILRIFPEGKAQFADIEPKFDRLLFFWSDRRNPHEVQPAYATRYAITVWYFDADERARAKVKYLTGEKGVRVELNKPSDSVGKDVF
ASSAY_PROCEDURE: HIF-PH assay (14CO2 capture), PHD2
Type: biochemical
CONDITION_NOTES: additional experiment, Table 1A
OBSERVABLE: IC50
Write down the value, and be sure its unit follows.

What does the data say about its IC50? Entry: `CC(C)(CC(=O)O)NC(=O)c1nc(C#N)c2cc(Oc3ccccc3)ccc2c1O`
16.9 µM

====

ASSAY_PROCEDURE: Preliminary PK profile in dogs
Type: in vivo, dog
CONDITION_NOTES: dog, in vivo; dogs, preliminary
Excerpt: The preliminary PK profile of the compound of Formula I in dogs was studied and the results are shown in FIG. 19 and summarized in the following Table.
OBSERVABLE: Cmax (ng/mL)
One number for each entry, in ng/mL.

Report Cmax for CC(C)(CC(=O)O)NC(=O)c1nc(C#N)c2cc(Oc3ccccc3)ccc2c1O [Formula I] please.
2600

====

ASSAY_PROCEDURE: PK profile in rats
Format: in vivo, rat
CONDITION_NOTES: rat, in vivo; rats
OBSERVABLE: Tmax (h)
One number for each entry, in h.

Value lookup for Tmax; key = `CC(C)(CC(=O)O)NC(=O)c1nc(C#N)c2cc(Oc3ccccc3)ccc2c1O`
6.7

====

SYSTEM_NAME: PHD2 (Homo sapiens (Human))
ASSAY_PROCEDURE: HIF-PH assay (14CO2 capture), PHD2
Assay type: biochemical
CONDITION_NOTES: Table 1
Experimental: The selectivity profile for the compound of Formula I can be determined using, for example, any assay familiar and commonly accessible to those skilled in the art, e.g., the following HIF-PH assay. […] Enzyme activity is determined by capturing ^14CO2 using an assay described by Kivirikko and Myllyla (1982, Methods Enzymol. 82:245-304). […] Percent inhibition and IC50 are calculated using peptide-dependent percent turnover at given inhibitor concentrations. […]
OBSERVABLE: IC50 (µM)
Numbers only, in µM.

Name the reported IC50 value associated with the compound CC(C)(CC(=O)O)NC(=O)c1nc(C#N)c2cc(Oc3ccccc3)ccc2c1O [Formula I]
20.4

====

ASSAY_PROCEDURE: PK profile in monkeys
Assay type: in vivo, monkey
CONDITION_NOTES: in vivo; monkey, PK summary table
OBSERVABLE: half-life

Form field: reported half-life of `CC(C)(CC(=O)O)NC(=O)c1nc(C#N)c2cc(Oc3ccccc3)ccc2c1O`
22 to 36 h
